tested on: Tat (HIV-1 primary isolate 133); assay: BLI; conditions: EMSA: 20 mM MES pH 6.0, 150 mM NaCl, 2 mM DTT, 2 mM MgCl2, BSA, 8% PEG8000, 37 C 30 min (IN-FLm 2 h at 4 C); BLI: 50 mM HEPES pH 7.5, 200 mM NaCl, 2 mM BME, 5% …
parameter_measured: Kd (µM)
One number for each entry, in µM.

[
  {
    "monomer_sequence": "CGUCCAUCUGGUCAUCUAGUGAUAUCAUCG [Bt-RNA(30)-mer]",
    "u": "µM",
    "Kd": 3.84
  }
]

We now examine a further sequence.
For the sequence shown here, GGGCCAGAUCUGAGCCUGGGAGCUCUCUGGCCC [Bt-TAR] , give the reported Kd. 1.49
